- assay.remarks: amyloid nucleation score (Sup35N fusion, yeast selection) (log enrichment); library NNK2; higher = more nucleation; inactive = no reads after selection;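 further: zero at mode of non-aggregating sequences after 7 days selection at 30°C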
# key: entry, value: amyloid nucleation score
No unit in the answer, please; the number alone is enough.

Could you share which amyloid nucleation score value was measured for WWKGWARTNNVMRAFVVMFY ?
-0.655

Could you share which amyloid nucleation score value was measured for YSYVIWYMHHCFWLNLRKFM ?
0.979

New cases:
Could you share which amyloid nucleation score value was measured for YSLVLYWMWNCYRNRLDSGF ?
-0.185

Could you share which amyloid nucleation score value was measured for SYFSVKHDRR ?
-0.228

Could you share which amyloid nucleation score value was measured for GNLGSHYALGPLDRATRGER ?
0.632

Could you share which amyloid nucleation score value was measured for AISGWCNMNCKLGKQWDYLV ?
1.25

Could you share which amyloid nucleation score value was measured for GVMRIHCGDREC ?
0.8

Could you share which amyloid nucleation score value was measured for IGDYLRLELVL ?
0.187

Could you share which amyloid nucleation score value was measured for MRCAPLMHHLARPASFRI ?
2.08

====

- assay.remarks: amyloid nucleation score (Sup35N fusion, yeast selection) (log enrichment); library NNK3; higher = more nucleation; inactive = no reads after selection
readout.type: amyloid nucleation score

Could you share which amyloid nucleation score value was measured for CYPVSVQYNGV ?
inactive

Could you share which amyloid nucleation score value was measured for DSDVWANAGHRLSLKMI ?
inactive

Could you share which amyloid nucleation score value was measured for FVDLSGRSCRVPTEVWGFHS ?
inactive

Could you share which amyloid nucleation score value was measured for LCRKPFDVGLGRV ?
inactive

Could you share which amyloid nucleation score value was measured for TCHLILRVFGSYNMHGS ?
-0.024

Could you share which amyloid nucleation score value was measured for FVGIIGWMIYVEGVY ?
inactive

New cases:
Could you share which amyloid nucleation score value was measured for IPLLQCNIERYISLFVLVVG ?
inactive

Could you share which amyloid nucleation score value was measured for SYFGRLIQSLTRQWTTVARS ?
inactive

Could you share which amyloid nucleation score value was measured for VRRCNTCLQ ?
inactive

Could you share which amyloid nucleation score value was measured for SSWPICMPASQNLLLNIGLG ?
inactive

Could you share which amyloid nucleation score value was measured for FKVLSFKSENSSYYVPFGLD ?
inactive

Could you share which amyloid nucleation score value was measured for APLEFLSSLDWIRPELALTF ?
inactive

====

# key: entry, value: amyloid nucleation score
- assay.remarks: amyloid nucleation score (Sup35N fusion, yeast selection) (log enrichment); library NNK2; higher = more nucleation; inactive = no reads after selection
No unit in the answer, please; the number alone is enough.

Could you share which amyloid nucleation score value was measured for TYVYNGAYVVGNWL ?
-0.964

Could you share which amyloid nucleation score value was measured for NEIQANNCGPKILKLYQNMR ?
0.579

Could you share which amyloid nucleation score value was measured for TYLKHVRKS ?
1.11

Could you share which amyloid nucleation score value was measured for HNLMCYGWNFLSVSVVDNCD ?
6.55

Could you share which amyloid nucleation score value was measured for GVVYLGNRLISFSRSLSLKT ?
0.387

New cases:
Could you share which amyloid nucleation score value was measured for PIHNNKHGCFSSERSSFHKM ?
-1.6

Could you share which amyloid nucleation score value was measured for TLLWSRTMYVGIPSYRYGGA ?
0.676

Could you share which amyloid nucleation score value was measured for RFWSMETEHDIIALVFASSV ?
0.096

Could you share which amyloid nucleation score value was measured for KCLSRTQTYACSP ?
1.78

Could you share which amyloid nucleation score value was measured for NSRQYSVMIVQLIPCCQLIP ?
0.033

Could you share which amyloid nucleation score value was measured for GGHDCTVPDGFALGWYMTRG ?
0.995

Could you share which amyloid nucleation score value was measured for PWVSILLVPMYQRHLTPHPE ?
-0.121

Could you share which amyloid nucleation score value was measured for MTIQSYGVILLLISVYWLSF ?
0.584

Could you share which amyloid nucleation score value was measured for LSLWTIGISPVGYRLTNRHQ ?
-0.315

====

- assay.remarks: amyloid nucleation score (Sup35N fusion, yeast selection) (log enrichment); library NNK2; higher = more nucleation; inactive = no reads after selection
readout.type: amyloid nucleation score
No unit in the answer, please; the number alone is enough.

Could you share which amyloid nucleation score value was measured for VSLRYRKRQWCYRVKWSITD ?
-1.36

Could you share which amyloid nucleation score value was measured for VLGGLCSVFGDDGTAYYSSS ?
0.417

Could you share which amyloid nucleation score value was measured for FYISKFLAWFIIPSGLFLGN ?
-1.72

Could you share which amyloid nucleation score value was measured for TKRAIDWA ?
0.669

Could you share which amyloid nucleation score value was measured for ILDCLSYQLDDVVSAI ?
3.21

Could you share which amyloid nucleation score value was measured for ANWQWPYCCCCLEGIGRNLF ?
4.94

New cases:
Could you share which amyloid nucleation score value was measured for WRRTTYYGRDRGQVLGNNAG ?
-0.009

Could you share which amyloid nucleation score value was measured for GIFTTWNRISRRLCLRVHYP ?
-0.497

Could you share which amyloid nucleation score value was measured for VILYGFNKVMECSTYVVV ?
-0.804

Could you share which amyloid nucleation score value was measured for YWSRRAYCFCSAFFYNTGFF ?
1.53

Could you share which amyloid nucleation score value was measured for AIPSRPSFLKPQPRILFTIP ?
-0.702

Could you share which amyloid nucleation score value was measured for IRQFDIDITNARNKG ?
-1.62

Could you share which amyloid nucleation score value was measured for SCHLLL ?
-0.891

Could you share which amyloid nucleation score value was measured for LCVCRPGRRSIYLMVWVWWN ?
-0.513

Could you share which amyloid nucleation score value was measured for EDHSGF ?
-1.15

Could you share which amyloid nucleation score value was measured for MIRKVYYSF ?
-0.77

Could you share which amyloid nucleation score value was measured for VMYRCSRSALNLHVRRNWRW ?
0.455

Could you share which amyloid nucleation score value was measured for GKCFIWCSMGIWLGVCDQSA ?
3.59

Could you share which amyloid nucleation score value was measured for VIMGFFGITFGWCKRSEVHE ?
2.49

Could you share which amyloid nucleation score value was measured for RMNYTTEIGHSGFSGNIWTG ?
-0.45

Could you share which amyloid nucleation score value was measured for VAWITLMIPHIYFQSGILWD ?
-1

Could you share which amyloid nucleation score value was measured for TCRQSEATLLVLEYVRESCS ?
0.809

Could you share which amyloid nucleation score value was measured for RVNGLKSRVSRVRIGNVS ?
0.224

Could you share which amyloid nucleation score value was measured for VRFKYIYHTGLDDVAVNQY ?
-0.487

Could you share which amyloid nucleation score value was measured for ADLSRRLGMFVVLCLGGWAW ?
-0.326

====

- assay.remarks: amyloid nucleation score (Sup35N fusion, yeast selection) (log enrichment); library NNK3; higher = more nucleation; inactive = no reads after selection
readout.type: amyloid nucleation score

// worked examples, amyloid nucleation score included
Could you share which amyloid nucleation score value was measured for RRMLTRTFRG ?
inactive

Could you share which amyloid nucleation score value was measured for GMVNDYVVTVNFPCFWLG ?
2.19

Could you share which amyloid nucleation score value was measured for IEAVCNSWRIYGM ?
inactive

Could you share which amyloid nucleation score value was measured for YTIYIIIRW ?
1.03

Could you share which amyloid nucleation score value was measured for TSTYSFCTRVWYPASIIFGR ?
inactive

Could you share which amyloid nucleation score value was measured for YGKQVLWN ?
inactive

Could you share which amyloid nucleation score value was measured for LDKAHHHLETAKLLLAWGVI ?
inactive

Could you share which amyloid nucleation score value was measured for FSDVGLWFGAYRKVVVVKLF ?
inactive

New cases:
Could you share which amyloid nucleation score value was measured for ICPIMNCVFFHRTDQSLSFN ?
2.29

Could you share which amyloid nucleation score value was measured for VIIICQLHCYTKTMIIRHRC ?
0.118

Could you share which amyloid nucleation score value was measured for LCVMCCATSFSHVCILIYRI ?
inactive

Could you share which amyloid nucleation score value was measured for LMLRVHGMW ?
inactive

Could you share which amyloid nucleation score value was measured for LCCGKCRPGPKFCTKISHTN ?
inactive

Could you share which amyloid nucleation score value was measured for RSVVEWGS ?
inactive

Could you share which amyloid nucleation score value was measured for YLNISILFNCVWDKVFFRYH ?
inactive

Could you share which amyloid nucleation score value was measured for FRYVIVYKRSSFGYRKCIEC ?
inactive

Could you share which amyloid nucleation score value was measured for RSYFGMARGAHFSAHFLLFL ?
inactive

====

- assay.remarks: amyloid nucleation score (Sup35N fusion, yeast selection) (log enrichment); library NNK3; higher = more nucleation; inactive = no reads after selection
readout.type: amyloid nucleation score

// worked examples, amyloid nucleation score included
Could you share which amyloid nucleation score value was measured for CVSSLIAKMGIVGCDGCYKG ?
inactive

Could you share which amyloid nucleation score value was measured for VCGILRIIILGLMYVEALGW ?
inactive

Could you share which amyloid nucleation score value was measured for SISCCGIILIKNQASMPWAS ?
2.96

Could you share which amyloid nucleation score value was measured for PVYGSLCRFYGVRYGR ?
inactive

Could you share which amyloid nucleation score value was measured for NSGHLVLGCMYIFSNGFVDR ?
1.22

Could you share which amyloid nucleation score value was measured for MNNCTDLYLLVNPRIRFGVM ?
inactive

Could you share which amyloid nucleation score value was measured for IIRVRQTLSVRFIYIF ?
inactive

Could you share which amyloid nucleation score value was measured for SIFCFDYWQDIGTFMPSAVK ?
inactive

New cases:
Could you share which amyloid nucleation score value was measured for TICCSDLVVEDHG ?
inactive

Could you share which amyloid nucleation score value was measured for MQICSCYRFSD ?
2.45

Could you share which amyloid nucleation score value was measured for AGEKPNSIFYSTHSSRSFSN ?
0.965

Could you share which amyloid nucleation score value was measured for DIYMMLICGWGLGKLIPGFM ?
inactive

Could you share which amyloid nucleation score value was measured for FKLVGCGCNVMTFVSYLVNQ ?
1.98

Could you share which amyloid nucleation score value was measured for LCVYTYTSTHAVFFIVFDSR ?
inactive

Could you share which amyloid nucleation score value was measured for ISMLTVVSN ?
inactive

Could you share which amyloid nucleation score value was measured for FGSYFSLKVFYNYF ?
2.38

Could you share which amyloid nucleation score value was measured for WGWPSFTCTWLCRRSSCRWP ?
inactive

Could you share which amyloid nucleation score value was measured for FRNRCVNDD ?
inactive

Could you share which amyloid nucleation score value was measured for TYEVPGPPSQRSLSY ?
inactive

Could you share which amyloid nucleation score value was measured for VCCFWVVDIKILFSGLPISS ?
2.28

Could you share which amyloid nucleation score value was measured for RSGSMWCLSMLVVHLDELTD ?
inactive

Could you share which amyloid nucleation score value was measured for TFLYTFWVLMACSELV ?
inactive

Could you share which amyloid nucleation score value was measured for KDNKGMGRMFSNILFFTISL ?
0.663

Could you share which amyloid nucleation score value was measured for YLNRLCLNTNISRAVRCY ?
inactive

Could you share which amyloid nucleation score value was measured for DLCVLAMASFEVAIAHGRPR ?
0.172

Could you share which amyloid nucleation score value was measured for EGHGGTRLSHRA ?
inactive

Data credit: the supplement of paper PMC12042874
